FYI, the data here is from the Human Domainome abundance scans (Beltran et al. 2025).

B1: Dystrobrevin alpha, residues 235 to 294; numbered along this chain, Q9Y4J8 (parent)
chain: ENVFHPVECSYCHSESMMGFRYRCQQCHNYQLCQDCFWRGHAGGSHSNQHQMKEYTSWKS

Variants of: B1
measurementNotes: abundance fitness (aPCA) (normalised: wild type 0, dead -1); higher = more abundant; growth selection in yeast, the domain comes from the species named
conditionsUsed: Homo sapiens
valueType: abundance fitness

variantspec=F20M valuereported=-0.004
variantspec=R39S valuereported=0.062
variantspec=H13L valuereported=-0.176
variantspec=A42T valuereported=-0.054
variantspec=S10T valuereported=-0.162
variantspec=H28G valuereported=-0.1
variantspec=S10Q valuereported=-0.453
variantspec=K53C valuereported=-0.137
variantspec=F20N valuereported=0.217
variantspec=C24K valuereported=-0.928
variantspec=N2L valuereported=-0.158
